Tested on: NCI/ADR-RES
TEST_PROTOCOL: Cytotoxicity against human NCI-ADR-RES cells assessed as inhibition of cell growth
Type: functional, cell-based
pIC50: −log10 of the molar value.

SMILES_ENTRY	SYSTEM_TESTED	pIC50
COc1ccc(S(=O)(=O)Nc2cccc3cc(-c4ccccc4)[nH]c23)cc1	NCI/ADR-RES	6.82

----------
Test system: RKO
TEST_PROTOCOL: Cytotoxicity against human RKO cells assessed as inhibition of cell growth
Assay type: functional, cell-based
pIC50: −log10 of the molar value.
REPORTED_METRIC: pIC50

SMILES_ENTRY	REPORTED_METRIC	EXPERIMENTAL_RESULT
COc1cc(C(=O)c2cccc3[nH]ccc23)cc([Se]C)c1OC	pIC50	8.40

----------
Test system: A549
TEST_PROTOCOL: cells
MEASUREMENT_PARAMETERS: Homo sapiens
Description: Cytotoxicity against human A549 cells assessed as inhibition of cell growth

MOLECULE	IC50 (µM)
CC(=O)c1ccc(C2=C(c3c(C)[nH]c4ccccc34)C(=O)N(C)C2=O)cc1	4.97
COc1ccc(S(=O)(=O)Nc2cccc3cc(-c4ccccc4)[nH]c23)cc1	1.43
N#Cc1c(-c2ccc(F)cc2Cl)cc(-c2c[nH]c3ccccc23)n2ccnc12	0.57
COc1cc(C2=CN(C(N)=O)C(c3cn(C)c4ccc(Br)cc34)C2)cc(OC)c1OC (stereo not drawn)	0.26
COc1cc(/C=C/c2ncc([N+](=O)[O-])n2CCOC(=O)c2c[nH]c3ccccc23)cc(OC)c1OC	0.035
COc1cc(CSc2nnc(-c3cn(C)c4ccccc34)n2-c2ccccc2)cc(OC)c1OC	0.3
COc1cc(C(=O)c2cccc3[nH]ccc23)cc([Se]C)c1OC	0.004
COc1cc(/C=N/NC(=O)c2cn(Cc3ccccc3)c3ccccc23)cc(OC)c1OC	0.08
